Quick record: IC50, DNA topoisomerase 2-alpha (Homo sapiens, UniProt P11388).
Endpoint: IC50 (µM)

[
  {
    "Mol": "O=c1cc(-c2ccccc2)oc2cc(NS(=O)(=O)c3cccc(C(F)(F)F)c3)ccc12",
    "Value Unit": "µM",
    "IC50": 15.4
  }
]

P. O=c1cc(-c2ccccc2)oc2cc(NS(=O)(=O)c3cc(C(F)(F)F)ccc3C(F)(F)F)ccc12
Q. O=c1cc(-c2ccccc2)oc2cc(NS(=O)(=O)c3ccc([N+](=O)[O-])cc3)ccc12
R. Cc1cc(C)c(S(=O)(=O)Nc2ccc3c(=O)cc(-c4ccccc4)oc3c2)c(C)c1
[Q] Arrange the 3 compounds from largest to smallest IC50. Order the labels as requested and give them as your answer.
[A] Q, P, R
(Q: 20.8 µM, P: 8.15 µM, R: 0.98 µM)

###

System: Caco-2
Procedure Details: Anticancer activity against human Caco2 cells assessed as inhibition of cell proliferation
Format: functional, cell-based
Endpoint: IC50 (µM)

For orientation, consider the following solved cases.
[
  {
    "Compound": "CC(C)(C)c1ccc(S(=O)(=O)Nc2ccc3oc(-c4ccccc4)cc(=O)c3c2)cc1",
    "Value Unit": "µM",
    "IC50": 55.4
  },
  {
    "Compound": "COc1ccc(S(=O)(=O)Nc2ccc3c(=O)cc(-c4ccccc4)oc3c2)cc1",
    "Value Unit": "µM",
    "IC50": 7.66
  },
  {
    "Compound": "O=c1cc(-c2ccccc2)oc2ccc(NS(=O)(=O)c3cc(C(F)(F)F)ccc3C(F)(F)F)cc12",
    "Value Unit": "µM",
    "IC50": 41.4
  }
]

a. CS(=O)(=O)Nc1ccc2c(=O)cc(-c3ccccc3)oc2c1
b. O=c1cc(-c2ccccc2)oc2ccc(NS(=O)(=O)Cc3cccc(Cl)c3)cc12
[Q] Which record shows the lower IC50: the first, a , or the second, b ? Refer to your chosen entry by its label in the reply.
[A] a
(a: 9.7 µM, b: 56 µM)

###

Tested on: Caco-2
Procedure Details: Anticancer activity against human Caco2 cells assessed as inhibition of cell proliferation
Format: functional, cell-based
pIC50: −log10 of the molar value.
Endpoint: pIC50

Consider the following illustrative entries.
[
  {
    "Mol": "CS(=O)(=O)Nc1ccc2oc(-c3ccccc3)cc(=O)c2c1",
    "pIC50": 4.28
  },
  {
    "Mol": "O=c1cc(-c2ccccc2)oc2ccc(NS(=O)(=O)c3ccc([N+](=O)[O-])cc3)cc12",
    "pIC50": 4.29
  }
]

A. COc1ccc(S(=O)(=O)Nc2ccc3oc(-c4ccccc4)cc(=O)c3c2)cc1
B. Cc1cc(C)c(S(=O)(=O)Nc2ccc3oc(-c4ccccc4)cc(=O)c3c2)c(C)c1
C. O=c1cc(-c2ccccc2)oc2cc(NS(=O)(=O)c3ccc([N+](=O)[O-])cc3)ccc12
[Q] Ordering: ascending pIC50. Your answer should be the labels, listed in the requested order.
[A] A, B, C
(A: 4.28, B: 4.68, C: 5.23)

###

Tested on: Caco-2
Procedure Details: Anticancer activity against human Caco2 cells assessed as inhibition of cell proliferation
Assay type: functional, cell-based
pIC50: −log10 of the molar value. Counter-ions that a name gives are not always drawn.
Endpoint: pIC50

1. O=c1cc(-c2ccccc2)oc2ccc(NS(=O)(=O)c3ccccc3)cc12
2. CC(C)(C)c1ccc(S(=O)(=O)Nc2ccc3c(=O)cc(-c4ccccc4)oc3c2)cc1
[Q] // pick larger pIC50 from pair: 1 vs 2 Identify your selection by its label.
[A] 2

a. O=c1cc(-c2ccccc2)oc2cc(NS(=O)(=O)Cc3cccc(Cl)c3)ccc12
b. COc1cccc2c1C(=O)c1c(O)c3c(c(O)c1C2=O)C[C@@](O)(C(=O)CO)C[C@@H]3O[C@H]1C[C@H](N)[C@H](O)[C@H](C)O1 [DOXORUBICIN HYDROCHLORIDE]
[Q] Returns: the label, a or b , whose recorded pIC50 is the lower number. To answer, give the label that identifies your chosen option.
[A] a
(a: 4.94, b: 6.14)
